Origin of values: paper PMC6264310

# log10 of IC50 values compiled below
Tested on: MRC-5 fibroblasts
Assay: Basal cytotoxicity, neutral red uptake assay, MRC-5
Type: cell-based
Conditions: Homo sapiens, MRC5, MRC-5, confluent cultures, 24 h, read-out: IC50 ± SEM, Fibroblasts
measure_name: log10 of IC50 (log10 of the value in µM)

{"compound": "C=C1CCC2[C@](C)(CCC[C@]2(C)C(=O)O)[C@H]1CC[C@@H](C)CC(=O)OC1=C(CCC(C)C)C(=O)C2=C(CCCC2)C1=O (some centres unmarked)", "log10 of IC50": 1.84}
{"compound": "CC1=C(CC[C@@H](C)CC(=O)OC2=C(CCC(C)C)C(=O)c3ccccc3C2=O)[C@@]2(C)CCC[C@](C)(C(=O)O)C2CC1 (some centres unmarked)", "log10 of IC50": 2.53}
{"compound": "CC1=C(CC[C@@H](C)CC(=O)O)[C@@]2(C)CCC[C@](C)(C(=O)O)C2CC1 (some centres unmarked) [Δ8(9) junicedric acid (II), Δ8(9) Junicedric acid, reference compound]", "log10 of IC50": 2.33}
{"compound": "C=C1CCC2[C@](C)(CCC[C@]2(C)C(=O)O)[C@H]1CC[C@@H](C)CC(=O)OC1=C(CCC(C)C)C(=O)c2ccccc2C1=O (some centres unmarked) [Compound 3, Dihydroprenyl lapachoyl junicedrate]", "log10 of IC50": 2.19}
{"compound": "C=C1CCC2[C@](C)(CCC[C@]2(C)C(=O)OC)[C@H]1CC[C@@H](C)CC(=O)OC1=C(CC=C(C)C)C(=O)c2ccccc2C1=O (some centres unmarked) [Compound 2, Lapachoyl junicedrate methyl ester]", "log10 of IC50": 2.87}
